- TEST NAME: soluble on expression in E. coli; label from the status in PepcDB or PDB records
READOUT KIND: soluble on expression in E. coli

Answered cases to consult:
Task item: Would you kindly share the measured soluble on expression in E. coli for MNAAVVRRTQEALGKVIRRPPLTEKLLSKPPFRYLHDIITEVIRMTGFMKGLYTDAEMKSDNVKDKDAKISFLQKAIDVVVMVSGEPLLAKPARIVAGHEPERTNELLQIIGKCCLNKLSSDDAVRRVLAGEK ?
Reply: soluble

Task item: How about this sequence: NSKKETVTVGVLQFVSHPALDEIYKGVEEGLKENGYDKGKNLEIIFQNGQADQSKLAIMSQQLVQKKADVLIGIATPAAQALANTTQEIPIILGAITDPVSAGLVKDNQKPGGNITGVSDQSPLSAQMDLLKELIPAAKKIGILYASSEENSRYQVAEAQKAAEAKGLTVKTYAVPSSNEIAQTVQVMTKETDVIYIPTDNTIANAMQTVVGEANRTKTPIIPSVDTMVEQGGLATVGINQHALGVQAGKMAAEVLSGKSQPATTPIYTFNTGDTIINEKQAQKLGITIPAELAKKSKLIN
Reply: not soluble

Task item: How about this sequence: GMASSFLEEVDRLITLSGITFHASGTGTPELIKIYQDALGNEFPETYKLFLEKYGTLTFNGVSFYGISKRGLSAASIPDVKFATEQARTFGDINKEMIMIKNSGYGSIFSIDTSIIGSEGEPVIVETNLSFKDNTEKKVVANSFGEFLLEEIELSLTDLG
Reply: soluble

Task item: How about this sequence: MSDVDVFVIDDDFDPLADLSLDDGERDDAEADYLPPIPDADKSVVPPVVPLSATERIEKLLAGIPGQQFRLLHAVEFCTEPKTMDEAVADLDAAYPNTTSVYGSAQVVQLLERDGALERIVDEDAAHAAAGDAADTPAEDEGFISVTPAPPCRYRATQAGLDAVAAHVNEGLVAERISEDERYLPIFQRVLEMCAREGGCPTKELDQAVDGDPLCQEPRRFCGFFRGKLEETGAIEWRDAWTITDLGRSVLASGLFAAASPSER
Reply: not soluble

Task item: How about this sequence: MEKNKLRKVGLTALEWLKQHPEIKQHKESSLYEQLFASQQWQQAQTIGMIRSLPLELSTQPIFERAMQESKQVAVPRTFKGGKMHFYQVFPETVYDTSAFGVEEPPLTAAEITATAIDLLIVPGIVFNRAGYRIGFGGGFYDRYLEHFSGHSCSLVFSEQLHEQWQPEAFDQPIEQLFIQLEHHHHHH
Reply: not soluble

# input for lookup
Task item: Would you kindly share the measured soluble on expression in E. coli for MGSDKIHHHHHHMKISNISYFNFRNLENTSIDLSDKINVFYGKNAQGKTSLLEAIYYSSTGISFKTKKTSEMIKYNFDEFISSISYQDYIANNKISVRFKNIAGAKKEFFFNKKRISQTDFYGKINIIAYIPEDIILINGSPKHRRDFFDIEISQIDKEYLTNLKNYDKLLKIRNKYLKENKRNSEEFAIYEKEFIKYASYIIFTRIEYVKSLSIILNLQYRKLFNIAQELNLRYETSLDKTAKVTIEMIQESLKREISQKKYQEDKYKFSLVGPHKDDYKFLLNGHEAKISASQGEKKSIIFSLKLSEIEIIKKNRKENPVVIIDDITSYFDEDRRKSILDFFNKRDIQVLISSTDKLDIEAKNFYVEKGIIKDESNINK ?
Reply: not soluble

Hey, just so you know, these numbers are from the DeepSol protein solubility set.
